Collected from the literature: log10 IC50 of various compounds toward Carbonic anhydrase 1 (Homo sapiens).
Hello, just confirming the data are log10 of IC50 with units of µM.

COc1cc2c(cc1OC)CC(NS(C)(=O)=O)C2    2.42
Nc1ccc2c(c1)S(=O)(=O)NC2=O    1.74
COc1ccc(NC(=S)Nc2ccc3c(c2)S(=O)(=O)NC3=O)cc1    1.64
Cc1ccc(-c2c(C#N)c(N)nc3c2CCSC3)s1    1.74
COc1ccc(C(=O)C2=C(c3ccc(OC)c(OC)c3)CCC2)cc1OC    -0.13
NS(=O)(=O)c1ccc(S(=O)(=O)NCCCN2CCOCC2)cc1    -1.24

Query :: Please provide the recorded log10 IC50 for "NS(=O)(=O)c1ccc(C(=O)NCCCN2CCOCC2)cc1" , tested on Carbonic anhydrase 1 (Homo sapiens).
Result :: -0.64

Query :: Please provide the recorded log10 IC50 for "Cc1ccc(NC(=S)Nc2ccc3c(c2)S(=O)(=O)NC3=O)cc1" , tested on Carbonic anhydrase 1 (Homo sapiens).
Result :: 1.14

Query :: Please provide the recorded log10 IC50 for COc1ccc(C(=O)C2CCC=C2c2ccc(OC)c(OC)c2)cc1OC (stereo not given) , tested on Carbonic anhydrase 1 (Homo sapiens).
Result :: -0.20

---

Collected from the literature: pIC50 of various compounds toward Carbonic anhydrase 1 (Homo sapiens, UniProt P00915).
Field pIC50 (float): negative decimal logarithm of the concentration in molar.

In the examples that follow, each entry is paired with its recorded pIC50.
O=C(Nc1ccccc1)Nc1ccc2c(c1)S(=O)(=O)NC2=O    4.20
Oc1cc(Br)c(Cc2cc(Br)c(O)c(O)c2O)cc1O    5.37
Oc1ccc(Cc2ccc(O)c(O)c2O)cc1O    4.27
O=C1NS(=O)(=O)c2cc(NC(=S)Nc3cccc(Cl)c3)ccc21    4.48
O=C1NS(=O)(=O)c2cc(NC(=S)Nc3cccc(I)c3)ccc21    4.69
NS(=O)(=O)c1ccc(NC=C2C(=O)c3ccccc3C2=O)cc1    5.50
NS(=O)(=O)c1ccc(NC=C2C(=O)CCC2=O)cc1    5.32
CO/N=C(\C(=O)N[C@@H]1C(=O)N2C(C(=O)O)=CCS[C@H]12)c1csc(N)n1    4.10

Query :: Which measured pIC50 value corresponds to COc1ccc(C2CCCC2C(OC(=O)c2ccc([N+](=O)[O-])cc2)c2ccc(OC)c(OC)c2)cc1OC (centres undefined) ?
Result :: 6.40

---

Collected from the literature: pIC50 of various compounds toward Carbonic anhydrase 1 (Homo sapiens).
Field pIC50 (float): negative decimal logarithm of the concentration in molar.

In the examples that follow, each entry is paired with its recorded pIC50.
Cc1ccc(-c2c(C#N)c(N)nc3c2CCC3)o1    4.48
O=C1NS(=O)(=O)c2cc(NC(=S)Nc3cccc(F)c3)ccc21    4.33
O=C(Nc1cccc([N+](=O)[O-])c1)Nc1ccc2c(c1)S(=O)(=O)NC2=O    4.43
O=C(c1cc(O)c(O)cc1Br)c1cc(Br)c(O)c(O)c1O    5.49

Query :: Please provide the recorded pIC50 for "COc1cc(C(=O)C2=C(c3cc(OC)c(OC)cc3[N+](=O)[O-])CCC2)c([N+](=O)[O-])cc1OC" , tested on Carbonic anhydrase 1 (Homo sapiens).
Result :: 6.28

Query :: Please provide the recorded pIC50 for "C=CCN1CN(Cc2cc(=O)oc3c(O)c(O)ccc23)c2ccccc21" , tested on Carbonic anhydrase 1 (Homo sapiens).
Result :: 4.32

Query :: Please provide the recorded pIC50 for "O=C1NS(=O)(=O)c2cc(NC(=S)Nc3ccc(F)cc3)ccc21" , tested on Carbonic anhydrase 1 (Homo sapiens).
Result :: 4.25

Query :: Please provide the recorded pIC50 for "O=C1NS(=O)(=O)c2cc(NC(=S)Nc3ccc([N+](=O)[O-])cc3)ccc21" , tested on Carbonic anhydrase 1 (Homo sapiens).
Result :: 4.32

Query :: Please provide the recorded pIC50 for "COc1ccc(C(=O)CCCCC(=O)c2ccc(OC)c(OC)c2)cc1OC" , tested on Carbonic anhydrase 1 (Homo sapiens).
Result :: 6.36

Query :: Please provide the recorded pIC50 for COc1ccc(C2=CCCC2C(O)c2ccc(OC)c(OC)c2)cc1OC (stereo unspecified) , tested on Carbonic anhydrase 1 (Homo sapiens).
Result :: 6.22

Query :: Please provide the recorded pIC50 for COc1ccc(C(=O)C2CCCC2c2ccc(OC)c(OC)c2)cc1OC (stereo unspecified) , tested on Carbonic anhydrase 1 (Homo sapiens).
Result :: 6.33
